SYSTEM: T1, TNFR1 (Homo sapiens, UniProt P19438)
T1 chain: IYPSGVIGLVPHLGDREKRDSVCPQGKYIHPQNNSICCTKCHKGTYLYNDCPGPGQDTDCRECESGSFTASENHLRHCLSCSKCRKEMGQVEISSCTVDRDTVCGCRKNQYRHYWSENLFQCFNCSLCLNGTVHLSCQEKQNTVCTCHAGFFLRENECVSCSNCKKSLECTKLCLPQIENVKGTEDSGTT
ASSAY DETAILS: yeast display SC50
Reported values of apparent Kd (screen) for individual entries

| BINDER | READING UNIT | apparent Kd (screen) |
| --- | --- | --- |
| S77D (designed binder) SMEEEVEKAAKEYEKKKKEAIEKHLEKLKAKDKEAAERFLKELEEAAKEYAKDEAKTMSEEEAKRRAKKYKEKVLLDELSEEEQKEIKEAEEKLVRTILKYVEEAAK | nM | 11.4 |
| R96A (designed binder) SMEEEVEKAAKEYEKKKKEAIEKHLEKLKAKDKEAAERFLKELEEAAKEYAKDEAKTMSEEEAKRRAKKYKEKVLLSELSEEEQKEIKEAEEKLVATILKYVEEAAK | nM | 3 |
| V74E (designed binder) SMEEEVEKAAKEYEKKKKEAIEKHLEKLKAKDKEAAERFLKELEEAAKEYAKDEAKTMSEEEAKRRAKKYKEKELLSELSEEEQKEIKEAEEKLVRTILKYVEEAAK | nM | 0.304 |
| E14T (designed binder) SMEEEVEKAAKEYTKKKKEAIEKHLEKLKAKDKEAAERFLKELEEAAKEYAKDEAKTMSEEEAKRRAKKYKEKVLLSELSEEEQKEIKEAEEKLVRTILKYVEEAAK | nM | 11.4 |
